- Tested on: OVCAR-3 ovarian
- measurement-description: NCI tumour cell line growth inhibition, 48 h; in the data active = GI50 below about 0.43 µM; inactive = the rest
Classes used: class 1 (active), class 0 (inactive)

# compound, qualitative-label
records = [
    ("Cc1[nH]c2ccccc2c1C1=CC(=O)C=CC1=O", "class 0"),
    ("Cc1csc(-c2ccc3c(c2)COC3(CCCN(C)C)c2ccc(F)cc2)c1 (stereo not given)", "class 0"),
    ("O=C1c2ccccc2CCC1(Br)Br", "class 0"),
    ("C(=C\\c1nc2ccccc2s1)/c1ccc(N2CCOCC2)s1", "class 0"),
    ("CC#CC(=O)N[C@H]1CCCN(c2c(F)cc(C(N)=O)c3[nH]c(C)c(C)c23)C1", "class 0"),
    ("CCc1cccc(CC)c1NC(=O)c1ccn2c1CCc1cnc(Nc3ccc(N4CCN(C)CC4)cc3OC)nc1-2", "class 0"),
    ("Cc1nc2sc(C(=O)Nc3cccc(Cl)c3C)c(N)c2cc1C(=O)c1ccccc1", "class 1"),
    ("O=C(OC(CNc1c(C(=O)c2ccccc2)c(=O)n(Cc2ccccc2)c(=O)n1Cc1ccccc1)CN1CCCCC1)c1ccccc1 (stereo not given)", "class 0"),
    ("COc1ccc2cc(C(=O)/C=C/c3ccco3)ccc2c1", "class 0"),
    ("CCC[CH2][Ge]([CH2]CCC)([CH2]CCC)[O]C(=O)C(OC(C)=O)c1ccccc1 (stereo not given)", "class 0"),
]

----------
- Test system: HOP-62 NSCLC
- measurement-description: NCI tumour cell line growth inhibition, 48 h
assay-metric: TGI (µM)

# compound, experimental-target, prefix-operator, measured-result
data = [
    ("COc1cccc(N2C(=O)[C@H]3[C@H]4CC(C(C)(C)C)CC[C@H]4c4c([nH]c5ccccc45)[C@H]3C2=O)c1 (some centres not stated)", "HOP-62 NSCLC", "=", 31.7),
    ("C=C(CN(C)C)C(=O)c1ccc(OC)cc1", "HOP-62 NSCLC", "=", 51.9),
    ("CNC(=O)OCc1cc2ccncc2c2c1[nH]c1ccccc12", "HOP-62 NSCLC", "=", 55),
    ("N#CC1C(=O)NC2=C(CCOc3c2ccc2ccccc32)C1c1ccc(F)cc1 (configuration not stated)", "HOP-62 NSCLC", "=", 33.6),
    ("CC(=O)Nc1ccc(S(=O)(=O)c2ccc(NC(C)=O)cc2)cc1", "HOP-62 NSCLC", ">", 100),
    ("CSc1n[nH]c2n[nH]c(C)c12", "HOP-62 NSCLC", ">", 100),
    ("CC1=C2c3ccccc3N(S(=O)(=O)c3ccccc3)[C@H]2[C@H](C(=O)N2C3CC4CC[C@@]3(CS2(=O)=O)C4(C)C)CC1 (some centres not stated)", "HOP-62 NSCLC", ">", 100),
    ("CCCCCCCCCCCCCC(=O)OC1C(CO)OC(=O)C1O (configuration not stated)", "HOP-62 NSCLC", ">", 100),
    ("COc1cc(S(=O)(=O)Nc2ccc(-c3csc(/N=C\\C=C\\c4ccccc4)n3)cc2)ccc1Cl", "HOP-62 NSCLC", ">", 100),
    ("C[CH2][Sn]([Cl])([CH2]C)[CH2]C", "HOP-62 NSCLC", "=", 4.14),
    ("O=C(O)C1CCCCC1C(=O)Nc1nc2ccccc2[nH]1 (configuration not stated)", "HOP-62 NSCLC", ">", 100),
    ("COc1cc(/C=N/Nc2ncnc3c2cnn3Cc2ccccc2)ccc1O", "HOP-62 NSCLC", "=", 11.8),
    ("N#Cc1nc(Nc2ccc(Cl)cc2)sc1N", "HOP-62 NSCLC", "=", 46),
    ("Clc1ccc2c(Cl)nc(-c3ccccc3)nc2c1", "HOP-62 NSCLC", ">", 100),
    ("Nc1nc(Cl)nc2c1ncn2C1CCC(COP(=O)(O)OP(=O)(O)OP(=O)(O)O)O1 (configuration not stated)", "HOP-62 NSCLC", "=", 51.1),
    ("COc1cc2c(cc1OC)CN1CCc3ccccc3CC1C2 (configuration not stated)", "HOP-62 NSCLC", ">", 100),
    ("CN1CCN(CCCOc2ccc3nc(Nc4ccc(C(F)(F)F)c(Cl)c4)ccc3c2)CC1", "HOP-62 NSCLC", "=", 3.18),
    ("CCCCC1=CC1(C#N)[N+](=O)[O-] (configuration not stated)", "HOP-62 NSCLC", ">", 100),
    ("CCN(CC)CCNc1ccc2ncn3c4c(OC)ccc(=O)c4c(O)c1c23", "HOP-62 NSCLC", ">", 100),
    ("Cc1cc(O)c(O)c(Oc2cc(C)cc(O)c2O)c1", "HOP-62 NSCLC", ">", 100),
    ("CCOC(=O)NC(C(C(=O)OCC)C(=O)OCC)(C(F)(F)F)C(F)(F)F", "HOP-62 NSCLC", ">", 100),
    ("CC(=O)OC(C#N)CC(C)(C)/[N+]([O-])=[N+](\\[O-])C(C)(C)CC(C#N)OC(C)=O (configuration not stated)", "HOP-62 NSCLC", "=", 36.2),
]
